B1: NF2 (merlin) isoform 7, human, full length (507 aa, lacks exons 2-3 = isoform-1 residues 39-121; exon-16 C-terminus), P35240-4 (parent)
chain: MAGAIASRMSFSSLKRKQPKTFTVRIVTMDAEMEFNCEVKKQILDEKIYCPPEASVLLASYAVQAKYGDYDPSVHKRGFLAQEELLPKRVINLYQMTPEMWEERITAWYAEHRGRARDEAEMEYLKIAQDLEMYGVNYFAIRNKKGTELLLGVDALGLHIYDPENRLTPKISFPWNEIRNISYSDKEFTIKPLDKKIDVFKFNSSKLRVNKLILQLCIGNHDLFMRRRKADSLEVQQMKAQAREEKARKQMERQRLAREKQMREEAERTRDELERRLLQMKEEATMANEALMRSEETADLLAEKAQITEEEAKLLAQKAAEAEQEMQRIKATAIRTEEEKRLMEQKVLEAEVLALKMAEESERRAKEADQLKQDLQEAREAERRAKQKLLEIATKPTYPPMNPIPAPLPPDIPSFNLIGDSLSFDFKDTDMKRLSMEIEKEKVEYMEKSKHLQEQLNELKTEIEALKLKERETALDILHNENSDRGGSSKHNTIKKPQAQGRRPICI

Variants of: B1
Test: reverse yeast two-hybrid deep mutational scan (rY2H-seq): NF2 isoform 7 mutant library as bait mated with wild-type prey strains; selection on medium lacking adenine for non-interacting pairs; NextSeq paired-end sequencing; enrichment vs …
Conditions: with EMILIN1 (elastin microfibril interfacer 1), Q9Y6C2; yeast diploids after mating (RBait_S3 x RPrey_S3), 30 °C, selection for reporter genes on NB agar; human ABL2 co-expressed as the kinase-dead K35M mutant …; HIGHER = WEAKER BINDING (the opposite of display enrichments): higher = stronger loss of interaction: reverse Y2H selects yeast in which bait and prey do NOT interact (growth without adenine), so a …; hits-only table; scale: rY2H score; numbering: uniprot, sequence starts at 1
Short version: enrichment at least 2 is 1, less is 0.

Task: Is enrichment at least 2? Consider E325L
Output: 1

Task: Is enrichment at least 2? Consider E338K
Output: 1

Task: Is enrichment at least 2? Consider E164L
Output: 1

Task: Is enrichment at least 2? Consider L256A
Output: 1

Task: Is enrichment at least 2? Consider D30A
Output: 1

Task: Is enrichment at least 2? Consider E265L
Output: 1

Task: Is enrichment at least 2? Consider G419A
Output: 0

Task: Is enrichment at least 2? Consider L158A
Output: 1

Task: Is enrichment at least 2? Consider D299A
Output: 0

Task: Is enrichment at least 2? Consider P409L
Output: 1

Task: Is enrichment at least 2? Consider I418W
Output: 1

Task: Is enrichment at least 2? Consider A406I
Output: 1

Task: Is enrichment at least 2? Consider I418K
Output: 0

Task: Is enrichment at least 2? Consider R293E
Output: 1

Task: Is enrichment at least 2? Consider P413L
Output: 0

Task: Is enrichment at least 2? Consider N137L
Output: 1

Task: Is enrichment at least 2? Consider E360G
Output: 1

Task: Is enrichment at least 2? Consider G135E
Output: 1

Task: Is enrichment at least 2? Consider P399E
Output: 1

Task: Is enrichment at least 2? Consider E382G
Output: 0

Task: Is enrichment at least 2? Consider G219E
Output: 0

Task: Is enrichment at least 2? Consider I329E
Output: 1

Task: Is enrichment at least 2? Consider R115C
Output: 1

Task: Is enrichment at least 2? Consider Y398E
Output: 1

Task: Is enrichment at least 2? Consider E272A
Output: 1

Task: Is enrichment at least 2? Consider L151K
Output: 1

Task: Is enrichment at least 2? Consider V56C
Output: 1

Task: Is enrichment at least 2? Consider A322E
Output: 1

Task: Is enrichment at least 2? Consider R268K
Output: 1

Task: Is enrichment at least 2? Consider K66E
Output: 1

Task: Is enrichment at least 2? Consider Y61L
Output: 1

Task: Is enrichment at least 2? Consider E311A
Output: 0

Task: Is enrichment at least 2? Consider E272K
Output: 0

Task: Is enrichment at least 2? Consider A381K
Output: 1

Task: Is enrichment at least 2? Consider Q317E
Output: 0

Task: Is enrichment at least 2? Consider A319E
Output: 1

Task: Is enrichment at least 2? Consider I412L
Output: 1

Task: Is enrichment at least 2? Consider Y398A
Output: 0

Task: Is enrichment at least 2? Consider L149A
Output: 1

Task: Is enrichment at least 2? Consider A240S
Output: 1

Task: Is enrichment at least 2? Consider S172P
Output: 0

Task: Is enrichment at least 2? Consider H491A
Output: 1
